method: Hemolytic activity in human RBC at 100 ug/ml incubated for 1 hr
Type: toxicity, cell-based, Erythrocyte
particulars: human red blood cells (erythrocytes), at 100 µg/mL, read-out: Activity
Rule: measured hemolysis at 1 h, 100 ug/ml below 20% gets label 1; anything equal to or greater than 20% gets label 0.

1) H-FKWKSVLKIVKIFVDIYF-OH    label 0
2) H-GKCIAKAILKGAKKLLKKLVNP-OH    label 0
3) H-KKCIAKAILKKAKKLLKDLVNP-OH    label 1
4) H-FKDKSVLKIVDIFVDIYF-OH    label 1

[in] Dear colleague, could you confirm whether hemolysis at 1 h, 100 ug/ml of H-FKDKSVLKIVKIFVKIYF-OH falls below 20%? Thanks.
[out] label 1

[in] Hello, I'm reviewing records and need to know if hemolysis at 1 h, 100 ug/ml of H-GKCIAKAIFKGAKKFLKKLVNP-OH is below 20%. Could you check?
[out] label 1

---

method: Hemolytic activity in human RBC at 100 ug/ml incubated for 1 hr
Type: toxicity, cell-based, Erythrocyte
particulars: human red blood cells (erythrocytes), at 100 µg/mL, read-out: Activity
outcomeMeasure: hemolysis at 1 h, 100 ug/ml (%)
API: value field is a number in %; no unit string.

Past entries and their recorded results:
1. H-FKWKSVLKIVKIFVKIYF-OH    14.2
2. H-GKCIWKAIFKGAKKFLKKLVNP-OH    72.4
3. H-KKCIAKAILKKADDLLDDLVNP-OH    0
4. H-FKWKSVLKIVDIFVDIYF-OH    67.8
5. H-KKCIAKAILKKAKKLLDDLVNP-OH    0

Below: the item to evaluate.
Recorded result, H-GECIWDAIFHGAKHFLHRLVNP-OH , hemolysis at 1 h, 100 ug/ml: 28.5
